# credit: ChEMBL document CHEMBL4513147

tested on: Candida albicans; settings: 32 ug/mL
Description: Antifungal activity against Candida albicans ATCC 90028 (CO-ADD:FG_001); MIC in YNB media using NBS plates, by OD630
Entries with a potency or affinity are not part of this list.
Measure Name: Inhibition (%)
One number for each entry, in %.

For the 6 molecules below, give their Inhibition values.
1. COc1ccc2c(c1)C(=O)C(=Cc1cnccc1OC)CC2
2. COc1ccc2c(c1)C(=O)C(=Cc1cccnc1Br)CC2
3. COc1ccc2c(c1)CCC(=Cc1cnccc1OC)C2=O
4. COc1ccc2c(c1)C(=O)C(=Cc1ccccn1)CC2
5. COc1ccc2c(c1)CCC(=Cc1ccncc1)C2=O
6. CC(C)(C)OC(=O)N1CC(=Cc2ccco2)C(=O)/C(=C/c2ccco2)C1

Result:
2.37
1.26
-0.18
3.51
2.55
19.9
